Field: pIC50. Provide a value for each of the molecules that follow.
Biological target: BRAFV600E full-length (amino acids 2-766) (Homo sapiens, UniProt P15056, V600E)
Construct: His6-tagged BRAFV600E full-length (amino acids 2-766); His6; made in house; host or cells: baculovirus expression system (insect cells)
Sequence (P15056 2-766 V600E): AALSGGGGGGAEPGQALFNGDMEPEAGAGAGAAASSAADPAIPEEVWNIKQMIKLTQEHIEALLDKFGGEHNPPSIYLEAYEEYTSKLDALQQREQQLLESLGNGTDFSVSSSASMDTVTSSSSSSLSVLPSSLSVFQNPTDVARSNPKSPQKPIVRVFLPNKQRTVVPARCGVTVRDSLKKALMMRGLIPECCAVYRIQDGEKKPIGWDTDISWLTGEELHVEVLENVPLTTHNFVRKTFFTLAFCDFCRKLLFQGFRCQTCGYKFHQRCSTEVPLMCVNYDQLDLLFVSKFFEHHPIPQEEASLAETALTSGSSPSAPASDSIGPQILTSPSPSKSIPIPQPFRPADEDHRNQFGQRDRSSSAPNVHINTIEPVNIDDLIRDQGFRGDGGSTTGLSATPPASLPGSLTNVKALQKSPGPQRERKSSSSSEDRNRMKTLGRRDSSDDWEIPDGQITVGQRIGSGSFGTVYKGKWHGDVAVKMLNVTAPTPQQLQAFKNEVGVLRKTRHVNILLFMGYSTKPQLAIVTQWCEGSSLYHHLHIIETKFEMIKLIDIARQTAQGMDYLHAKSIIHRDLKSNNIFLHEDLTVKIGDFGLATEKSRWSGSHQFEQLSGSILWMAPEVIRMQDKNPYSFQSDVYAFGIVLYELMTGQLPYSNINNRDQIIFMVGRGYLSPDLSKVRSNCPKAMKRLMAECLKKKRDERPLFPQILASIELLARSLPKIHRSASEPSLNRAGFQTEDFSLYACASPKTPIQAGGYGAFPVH
Test: B-Raf Accelerated MEK ATPase assay (BRAMA)
Assay type: biochemical
Settings: Table 1a; highest pIC50 for the one or more runs, categorized; read-out: B-Raf Activity
pIC50: −log10 of the molar value.

>  <Smiles Data>
CC(C)c1nc(-c2ccc(F)c(NS(=O)(=O)c3c(F)cccc3F)c2)c(-c2ccnc(NCCCCN(C)C)n2)s1

>  <Tgt>
BRAFV600E full-length (amino acids 2-766) (Homo sapiens, UniProt P15056, V600E)

>  <pIC50>
6.00 to 7.00

$$$$
>  <Smiles Data>
CC(C)c1nc(-c2ccc(F)c(NS(=O)(=O)c3c(F)cccc3F)c2)c(-c2ccnc(NCCCN(C)C)n2)s1

>  <Tgt>
BRAFV600E full-length (amino acids 2-766) (Homo sapiens, UniProt P15056, V600E)

>  <pIC50>
< 6.00

$$$$
>  <Smiles Data>
COCCCNc1nccc(-c2sc(C(C)C)nc2-c2ccc(F)c(NS(=O)(=O)c3c(F)cccc3F)c2)n1

>  <Tgt>
BRAFV600E full-length (amino acids 2-766) (Homo sapiens, UniProt P15056, V600E)

>  <pIC50>
6.00 to 7.00

$$$$
>  <Smiles Data>
CC(C)c1nc(-c2ccc(F)c(NS(=O)(=O)c3c(F)cccc3F)c2)c(-c2ccnc(NCCN3CCOCC3)n2)s1

>  <Tgt>
BRAFV600E full-length (amino acids 2-766) (Homo sapiens, UniProt P15056, V600E)

>  <pIC50>
6.00 to 7.00

$$$$
>  <Smiles Data>
CC(C)c1nc(-c2ccc(F)c(NS(=O)(=O)c3c(F)cccc3F)c2)c(-c2ccnc(NCCOCCO)n2)s1

>  <Tgt>
BRAFV600E full-length (amino acids 2-766) (Homo sapiens, UniProt P15056, V600E)

>  <pIC50>
6.00 to 7.00

$$$$

Proceed to the following item.
Reported pIC50 of "CC(C)c1nc(-c2ccc(F)c(NS(=O)(=O)c3c(F)cccc3F)c2)c(-c2ccnc(NCCN3CCCC3)n2)s1" : < 6.00
